TESTED_TARGET: FGFR2 juxtamembrane region (JM) (UniProt P21802)
METHOD_NOTES: MST
MEASURED_ATTRIBUTE: Kd (µM)

1. CT^C1, untagged C-terminal tail of FGFR2 (the last 58 residues) (domain or fragment, Atto488 dye in the MST assays where CT is the labelled partner) TTNEEYLDLSQPLEQYSPSYPDTRSSCSSGDDSVFSPDPMPYEPCLPQYPHINGSVKT : 20.2

meta.source: paper doi:10.1101/2020.10.01.322123
